Each recorded value in this set is attributed to the CheMixHub drug solubility set.

assay: xn = mol fraction of the nth substance listed, in the solute-free solvent; details: 298.15 K; x2 = 0.2
Returns 1 if the recorded solubility (g/100 g solution) is greater than or equal to 2, and -1 otherwise.

See these solved cases before continuing.
1) N#CCNC(=O)c1cnccc1C(F)(F)F + CCOC(C)=O + CCO
1
2) Cc1c(Br)c(=O)n(C2CCCC2)c2nc(Cl)ncc12 + CC1=CC(=O)CC(C)(C)C1 + CC(C)O
-1
3) NC(=O)NC1NC(=O)NC1=O (stereo not given) + O + CO
-1
4) CCOC(=O)OC1=C(c2cc(C)ccc2C)C(=O)NC12CCC(OC)CC2 (stereo not given) + CC(C)=O + O
-1
5) CCOC(=O)OC1=C(c2cc(C)ccc2C)C(=O)NC12CCC(OC)CC2 (stereo not given) + CCO + O
-1
6) Cc1c(Br)c(=O)n(C2CCCC2)c2nc(Cl)ncc12 + CCOC(C)=O + CCO
-1
7) COC(=O)C(N)CS.Cl (stereo not given) + CCO + ClCCl
1
8) CCOC(=O)OC1=C(c2cc(C)ccc2C)C(=O)NC12CCC(OC)CC2 (stereo not given) + CC(C)O + O
1

Query string: Does the reported solubility (g/100 g solution) for Cc1c(Br)c(=O)n(C2CCCC2)c2nc(Cl)ncc12 + C1CCOC1 + CCO fall at or above the 2 mark?
Result string: 1

Query string: Does the reported solubility (g/100 g solution) for CCOc1ccccc1C(N)=O + CCO + CC#N fall at or above the 2 mark?
Result string: 1
